Tested on: HCT-116
Assay Method Text: Antiproliferative activity against human HCT-116 cells assessed as reduction in cell viability incubated for 48 hrs by MTT assay
Type: functional, cell-based
Assay Context: HCT-116, 48 h
Recorded IC50 values for a group of compounds are listed next.
Express your answer in µM, writing the number without its unit.

Some compounds with recorded IC50:
1) CCCCCCC(CCO)n1cnc2c(Cl)nc(F)nc21 (racemic) | 9.96
2) CCCCCCCCCCCC(CCO)n1cnc2c(Cl)ncnc21 (racemic) | 7.59
3) CCCCCCC(CCO)n1c(Br)nc2c(Cl)ncnc21 (racemic) | 16.1
4) CCCCCCCCCC(CCO)n1c(Br)nc2c(Cl)ncnc21 (racemic) | 26.9
5) CCCCCCCCCC(CCCl)n1cnc2c(Cl)ncnc21 (racemic) | 10.2
6) CCCCCCCCC[C@H](CCCl)n1cnc2c(Cl)ncnc21 | 9.58

Entry CCCCCCCCCCC(CCO)n1cnc2c(NC)ncnc21 (racemic) , IC50 reported as 12.7

Entry CCCCCCCCCC(CCOCP(=O)(OCC)OCC)n1cnc2c(Cl)ncnc21 (racemic) , IC50 reported as 9.11

Entry CCCCCCCCCC(CCO)n1cnc2c(N)ncnc21 (racemic) , IC50 reported as 10.5

Entry CCCCC(CCO)n1cnc2c(Cl)nc(Cl)nc21 (racemic) , IC50 reported as 15.5

Entry CCCCCCCCCC(CCO)n1cnc2c(N)nc(Cl)nc21 (racemic) , IC50 reported as 14.8

Entry CCCCCCCCCC(CCO)n1cnc2c(Cl)ncnc21 (racemic) , IC50 reported as 0.89
